# Test system: IL-6-GFP PC-9
# assay-method-text: cell viability (CCK-8 OD) relative to DMSO control (fraction of control); higher = more viable cells
# reported-conditions: compound concentration: 10 uM; treatment time: 48 h
Listed next: entries and their corresponding cell viability.

Answered examples (3):
[[record]]
molecule = "CC1Oc2cc(cnc2N)-c2c(nn(C)c2C#N)CN(C)C(=O)c2ccc(F)cc21 (centres undefined)"
reported_measurement = 0.945

[[record]]
molecule = "Nc1nnc(-c2cccc(Cl)c2Cl)c(N)n1"
reported_measurement = 1.05

[[record]]
molecule = "CC1=C(CC(=O)O)c2cc(F)ccc2/C1=C\\c1ccc(S(C)=O)cc1 (centres undefined)"
reported_measurement = 0.821


Shifting focus to the molecule that follows.
// query Report cell viability for COc1ccc2cc1Oc1ccc(cc1)CC1c3c(cc4c(c3Oc3cc5c(cc3OC)CCN(C)C5C2)OCO4)CCN1C (centres undefined) tested on IL-6-GFP PC-9.
// result 0.73

* * *

# Test system: IL-6-GFP PC-9
# assay-method-text: cell viability (CCK-8 OD) relative to DMSO control (fraction of control); higher = more viable cells
# reported-conditions: compound concentration: 10 uM; treatment time: 48 h
# cell viability values compiled below
Reply briefly: the number, and no unit.

# example entries with known answers
[[record]]
molecule = "CN1CCC(=C2c3ccccc3CCc3cccnc32)CC1.O=C(O)/C=C\\C(=O)O.O=C(O)/C=C\\C(=O)O [Azatadine dimaleate]"
reported_measurement = 0.513

[[record]]
molecule = "C#Cc1cccc(Nc2ncnc3cc4c(cc23)OCCOCCOCCO4)c1 [Icotinib]"
reported_measurement = 0.58

[[record]]
molecule = "CN(C)N=Nc1[nH]cnc1C(N)=O [Dacarbazine]"
reported_measurement = 0.834

[[record]]
molecule = "Cc1ccc(C(C)C)cc1 [p-Cymene]"
reported_measurement = 1.25

[[record]]
molecule = "CCC(C)n1ncn(-c2ccc(N3CCN(c4ccc(OCC5COC(Cn6cncn6)(c6ccc(Cl)cc6Cl)O5)cc4)CC3)cc2)c1=O (stereo unspecified) [Itraconazole]"
reported_measurement = 0.269


// query Quick check: cell viability of Cc1c(-c2ccc(-c3ccccc3F)cc2)nc2ccc(F)cc2c1C(=O)O [Brequinar] ?
// result 0.424

// query What would you report for CS(=O)(=O)c1ccc(C(=O)Nc2ccc(Cl)c(-c3ccccn3)c2)c(Cl)c1 [Vismodegib (GDC-0449)] ?
// result 0.311

// query Likewise for COc1cc(/C=C/C(=O)/C=C(O)/C=C/c2ccc(O)c(OC)c2)ccc1O [Curcumin] ?
// result 0.985

// query Another molecule: O=C(c1ccc(OCCN2CCCCC2)cc1)c1c(-c2ccc(O)cc2)sc2cc(O)ccc12 [Raloxifene]
// result 1.08

// query Note, next up: Nc1cccc2c1C(=O)N(C1CCC(=O)NC1=O)C2=O (stereo unspecified) [Pomalidomide]
// result 1.22

// query Entry to check: CCOC(=O)c1ccc(OC(=O)CCCCCNC(=N)N)cc1.CS(=O)(=O)O [Gabexate Mesylate]
// result 0.801

// query Now consider Nc1cc(C(Cl)=C(Cl)Cl)c(S(N)(=O)=O)cc1S(N)(=O)=O [Clorsulon] .
// result 1.08

// query Further, for CCN1CCN(Cc2ccc(Nc3ncc(F)c(-c4cc(F)c5nc(C)n(C(C)C)c5c4)n3)nc2)CC1.CS(=O)(=O)O ?
// result 0.415

* * *

# Test system: IL-6-GFP PC-9
# assay-method-text: cell viability (CCK-8 OD) relative to DMSO control (fraction of control); higher = more viable cells
# reported-conditions: compound concentration: 10 uM; treatment time: 48 h
// classify: if (cell viability < 0.8) 1.0 else 0.0

Example entries and their recorded answers appear below.
[[record]]
compound = "CN(C)C/C=C/C(=O)Nc1cc2c(Nc3ccc(F)c(Cl)c3)ncnc2cc1OC1CCOC1.O=C(O)/C=C\\C(=O)O.O=C(O)/C=C\\C(=O)O (configuration not stated) [Afatinib (BIBW2992) Dimaleate]"
target_entity = "IL-6-GFP PC-9"
category_label = 1.0

[[record]]
compound = "CCCS(=O)(=O)Nc1ccc(F)c(C(=O)c2c[nH]c3ncc(-c4ccc(Cl)cc4)cc23)c1F"
target_entity = "IL-6-GFP PC-9"
category_label = 0.0

[[record]]
compound = "CCOc1ccc(Cc2cc(C34OCC(CO)(O3)C(O)C(O)C4O)ccc2Cl)cc1 (configuration not stated)"
target_entity = "IL-6-GFP PC-9"
category_label = 0.0

[[record]]
compound = "CCN(CC)CCNC(=O)c1c(C)[nH]c(/C=C2\\C(=O)Nc3ccc(F)cc32)c1C.O=C(O)CC(O)C(=O)O [Sunitinib Malate]"
target_entity = "IL-6-GFP PC-9"
category_label = 1.0

[[record]]
compound = "C/C=C(/C(=C/C)c1ccc(O)cc1)c1ccc(O)cc1"
target_entity = "IL-6-GFP PC-9"
category_label = 0.0


Field: next compound
// query Regarding NCCNc1ccc(NCCN)c2c1C(=O)c1ccncc1C2=O.O=C(O)/C=C\C(=O)O.O=C(O)/C=C\C(=O)O [Pixantrone Maleate] , kindly confirm whether its cell viability is beneath 0.8.
// result 1.0

* * *

As shown below, each of these molecules has a reported cell viability value.
# System: IL-6-GFP PC-9GR
# assay-method-text: cell viability (CCK-8 OD) relative to DMSO control (fraction of control); higher = more viable cells
# reported-conditions: compound concentration: 10 uM; treatment time: 48 h

[[record]]
molecule = "O=C(Oc1ccccc1C(=O)O)c1ccccc1O [Sasapyrine]"
reported_measurement = 0.988

[[record]]
molecule = "CCOc1cc2ncc(C#N)c(Nc3ccc(OCc4ccccn4)c(Cl)c3)c2cc1NC(=O)/C=C/CN(C)C [Neratinib (HKI-272)]"
reported_measurement = 0.795

[[record]]
molecule = "CC(C(=O)O)c1ccc(C(=O)c2cccs2)cc1 (stereo unspecified) [Suprofen]"
reported_measurement = 1.53

[[record]]
molecule = "Cc1nc(Nc2ncc(C(=O)Nc3c(C)cccc3Cl)s2)cc(N2CCN(CCO)CC2)n1 [Dasatinib]"
reported_measurement = 0.953

[[record]]
molecule = "C=CC1CN2CCC1CC2C(O)c1ccnc2ccc(OC)cc12.Cl.O.O (stereo unspecified) [Quinine HCl Dihydrate]"
reported_measurement = 1.2

[[record]]
molecule = "COc1c(OC2OC(CO)C(O)C(O)C2O)cc2c(c1OC)-c1ccc(SC)c(=O)cc1C(NC(C)=O)CC2 (stereo unspecified) [Thiocolchicoside]"
reported_measurement = 1.18

[[record]]
molecule = "CC(C)C(=O)Nc1ccc([N+](=O)[O-])c(C(F)(F)F)c1 [Flutamide]"
reported_measurement = 1.18

[[record]]
molecule = "CC(=O)c1c(C)c2cnc(Nc3ccc(N4CCNCC4)cn3)nc2n(C2CCCC2)c1=O.Cl"
reported_measurement = 0.661

[[record]]
molecule = "CNC(=O)c1ccc(N2C(=S)N(c3ccc(C#N)c(C(F)(F)F)c3)C(=O)C2(C)C)cc1F [Enzalutamide (MDV3100)]"
reported_measurement = 1.04

[[record]]
molecule = "CC1CC2C3CCC4=CC(=O)C=CC4(C)C3(F)C(O)CC2(C)C1(O)C(=O)COP(=O)([O-])[O-].[Na+].[Na+] (stereo unspecified) [Dexamethasone Sodium Phosphate]"
reported_measurement = 1.22


// query Can you share its cell viability? I mean this molecule: CN1C(C(=O)Nc2ccccn2)=C(O)c2sccc2S1(=O)=O [Tenoxicam]
// result 1.16

// query Try COc1cc2nccc(Oc3ccc(NC(=O)C4(C(=O)Nc5ccc(F)cc5)CC4)cc3)c2cc1OC next.
// result 0.886

// query Same question for COc1ccc(-c2ccc3cc(C(=O)O)ccc3c2)cc1C12CC3CC(CC(C3)C1)C2 [Adapalene] please.
// result 1.15

// query Now this one: Cl.c1ccc2c(c1)CCCC2C1=NCCN1 (stereo unspecified) [Tetrahydrozoline HCl]
// result 0.987

// query Another molecule to check: CC1(C)C2CCC1(C)C(O)C2 (stereo unspecified) [Borneol]
// result 1.27

// query Please give the result for CC(=O)OC1(C(C)=O)CCC2C3C=C(C)C4=CC(=O)CCC4(C)C3CCC21C (stereo unspecified) [Megestrol Acetate] too.
// result 1.22

* * *

# Tested on: IL-6-GFP PC-9GR
# assay-method-text: cell viability (CCK-8 OD) relative to DMSO control (fraction of control); higher = more viable cells
# reported-conditions: compound concentration: 10 uM; treatment time: 48 h
cell viability listing for selected compounds.
# output: bare number, no unit

[[record]]
compound = "COC(c1ccccc1)(c1ccccc1)C(Oc1nc(C)cc(C)n1)C(=O)O (stereo not given)"
target_entity = "IL-6-GFP PC-9GR"
reported_measurement = 1.22

[[record]]
compound = "Cc1cncc(CN2CCC(=C3c4ccc(Cl)cc4CCc4cccnc43)CC2)c1.O=C(O)/C=C/C(=O)O [Rupatadine Fumarate]"
target_entity = "IL-6-GFP PC-9GR"
reported_measurement = 0.996

[[record]]
compound = "Cn1nnc2c(C(N)=O)ncn2c1=O [Temozolomide]"
target_entity = "IL-6-GFP PC-9GR"
reported_measurement = 1.18


// query Form: Entry = CC(CCC(=O)NCCS(=O)(=O)O)C1CCC2C3C(O)CC4CC(O)CCC4(C)C3CCC12C (stereo not given) | System = IL-6-GFP PC-9GR | cell viability = ____
// result 1.2

// query Follow-up entry: Cc1cn(-c2cc(NC(=O)c3ccc(C)c(Nc4nccc(-c5cccnc5)n4)c3)cc(C(F)(F)F)c2)cn1
// result 1.22

// query One more compound: C=CC1=C(C)c2cc3nc(cc4[nH]c(cc5[nH]c(cc1n2)c(C)c5C=C)c(C)c4CCC(=O)O)C(CCC(=O)O)=C3C
// result 0.345

// query Request: Clc1ccc(C(c2ccccc2Cl)C(Cl)Cl)cc1 (stereo not given)
// result 1.2

// query Would you mind doing COc1cc2c(Oc3ccc4[nH]c(C)cc4c3F)ccnc2cc1OCC1(N)CC1.Cl.Cl [Anlotinib (AL3818) dihydrochloride] as well?
// result 0.463

// query Another compound to check: CC(C)=CCC/C(C)=C/CC/C(C)=C/CCC(=O)OC/C=C(\C)CCC=C(C)C [Gefarnate]
// result 0.851

Where these numbers come from: the supplement of paper PMC8866396
